system: RXF 393 renal; assay: NCI tumour cell line growth inhibition, 48 h; in the data active = GI50 below about 0.43 µM; inactive = the rest
# output must be one of active, inactive

- Cc1nc([P+](c2ccccc2)(c2ccccc2)c2ccccc2)c(Sc2sc(-c3ccccc3)nc2[P+](c2ccccc2)(c2ccccc2)c2ccccc2)o1: inactive
- COc1cc(C2Cc3ncccc3-c3[nH]c(=O)c4cccnc4c32)cc(OC)c1OC (stereo not given): active
- Fc1cc2[nH]ncc2c2c3c(c(-c4cn[nH]c4C(F)(F)F)nc12)CCCC3: inactive
- CCOC(=O)c1ccc(NC(=O)Nc2nncs2)cc1: active
- C/C(=N\NC(=S)N1CCCCC1)c1ccccn1: active

Turning now to a further molecule:
Ask | Hello, I am checking results. What call was entered for `Cc1nc2ccc(Nc3nc(Cl)nc(N4CCOCC4)n3)cc2n1Cc1ccccc1` ?
Reply | inactive

----------
tested on: CCRF-CEM leukemia; test: NCI tumour cell line growth inhibition, 48 h; in the data active = GI50 below about 0.43 µM; inactive = the rest
# output must be one of TRUE = active, FALSE = inactive

Example results:
• CCN1C/C(=C\c2cc(OC)c(OC)cc2OC)C(=O)/C(=C/c2cc(OC)c(OC)cc2OC)C1 = FALSE
• O=C(Cc1ccc(/C=C/C(=O)c2ncc[nH]2)cc1)Nc1ccc(F)cc1 = FALSE
• N.N.N.N.N.[Co+3].[I-].[N-]=[N+]=[N-] = FALSE
• CCN(CC)c1ccc(/C=N/NC(=O)CSc2nc3ccccc3c(=O)n2CCc2ccc(S(N)(=O)=O)cc2)c(O)c1 = TRUE
• C=C1CC[C@@H]2[C@](C)(COC(C)=O)[C@H](OC(C)=O)CC[C@@]2(C)[C@@H]1CC(Nc1ccc(S(=O)(=O)NC(C)=O)cc1)C1=CCOC1=O (some centres undefined) = FALSE

Turning now to a further compound:
Ask | Hello, I am checking results. What call was entered for CC(N)C(Cc1ccc(Cl)cc1)c1ccc(Cl)cc1 (centres undefined) ?
Reply | FALSE

----------
system: NCI/ADR-RES ovarian; assay: NCI tumour cell line growth inhibition, 48 h
readout name: GI50

Answered examples (5):
• COc1cc(/C=C\c2cc(OC)c(OC)c(OC)c2)cc(N/C=C\C(=O)c2ccc(OC(F)(F)F)cc2)c1OC = 3.04 µM
• COCCNCc1ccc(-c2cc3nccc(Oc4ccc(NC(=S)NC(=O)Cc5ccc(F)cc5)cc4F)c3s2)nc1 = 2.02 µM
• CCN(CCCN(C)C)Cc1cc(I)cc(C)c1O = 27 µM
• C=C1CC[C@@H]2[C@](C)(COC(C)=O)[C@H](OC(C)=O)CC[C@@]2(C)[C@@H]1CC(Nc1ccc(S(=O)(=O)NC(C)=O)cc1)C1=CCOC1=O (stereo partly specified) = 2.51 µM
• Fc1cc2[nH]ncc2c2c3c(c(-c4cn[nH]c4C(F)(F)F)nc12)CCCC3 = 4.95 µM

Ask | Recorded GI50 for `CS(=O)(=O)Nc1cncc(-c2ccc3ncnc(Nc4ccc(F)c(Cl)c4)c3c2)c1` , please?
Reply | 15.4 µM

----------
system: A498 renal; test: NCI tumour cell line growth inhibition, 48 h
readout name: TGI

Answered examples (3):
* COc1ccc(C(c2cc(OC)c(OC)c(OC)c2)n2ccnc2)cc1O (centres undefined) | 0.941 µM
* CN(C)c1ccc(C=Nc2ccc(-c3nc4ccccc4[nH]3)cc2)cc1 | > 100 µM
* O=C(O)c1ccc(C(=O)c2ccccc2C(=O)O)cc1C(=O)O | > 100 µM

Please look at the items below and tell me TGI for each one, in order.
1. O=S(=O)(NCCCNc1nccc(-c2c(-c3ccc(O)cc3)nc3sccn23)n1)c1ccc(F)cc1
2. C#C[C@]1(O)CC[C@H]2[C@@H]3CCC4=C/C(=N/OCCN(C)C)CC[C@]4(C)[C@H]3CC[C@@]21C
3. Cc1cccc(N(C)C(=O)[C@@H]2[C@H](O)CCN2c2nc(C)cc(C(F)(F)F)c2C#N)c1

Reply |
1: 5.16 µM; 2: > 100 µM; 3: 69.8 µM

Please look at the items below and tell me TGI for each one, in order.
1. COC(=O)c1n[nH]c(C)c1N=NN(C)CCC#N
2. CC(=O)Nc1ccc2c(c1)C(c1ccccc1Cl)=Nc1c(n[nH]c1C)N2
3. COc1ccc(N=N/C(=N/NC(=O)c2ccc(C)cc2)c2ccc(N(CCC#N)CCC#N)cc2OC)cc1
4. CC(=O)OCC1OC(n2cc(F)c(=O)[nH]c2=O)C(NC(=O)N(CCCl)N=O)C(OC(C)=O)C1OC(C)=O (centres undefined)
5. O=c1oc2ccccc2nc1/C=C(\O)c1ccc(Cl)cc1
6. CC(=O)O[C@H]1C(=O)[C@@]2(C)[C@H]([C@H](OC(=O)c3cccc([N+](=O)[O-])c3)[C@]3(O)C[C@H](OC(=O)[C@H](O)[C@@H](NC(=O)c4ccccc4)c4ccccc4)C(C)=C1C3(C)C)[C@]1(OC(C)=O)CO[C@@H]1C[C@@H]2O
7. CN1c2ccccc2N(C(=O)c2ccc([N+](=O)[O-])cc2)C(CC(=O)O)c2cccn21 (centres undefined)
8. Cc1nc(N)c(N2CCN(C(=O)O)CC2)c(=O)[nH]1

Reply |
1: > 100 µM; 2: 6.99 µM; 3: > 100 µM; 4: > 100 µM; 5: > 100 µM; 6: 18.5 µM; 7: > 100 µM; 8: > 100 µM

Please look at the items below and tell me TGI for each one, in order.
1. COc1ccc(C(=O)C2=NON3OC23C(=O)c2ccc(OC)cc2)cc1 (centres undefined)
2. Cc1cn(C2CC(O)C(COC(=O)c3ccccc3)O2)c(=O)[nH]c1=O (centres undefined)
3. N#Cc1cc(C#N)c(N)nc1N
4. CN(C)C=Nc1ccn(CCO)c(=O)n1
5. O=C(O)CCCC(=O)Nn1c(Cc2ccc(Cl)cc2)n[nH]c1=O

Reply |
["18.2 µM", "> 100 µM", "> 100 µM", "> 100 µM", "> 100 µM"]

----------
tested on: DMS 273 small cell lung; assay: NCI tumour cell line growth inhibition, 48 h
Consider the following compounds; for each one, report its TGI.

Answered examples (8):
* Cc1c(Cl)cccc1NC(=O)C(=O)C(C(=O)c1ccccc1-c1ccccc1)C1OC(=O)c2ccccc21 (centres undefined) | 77 µM
* COc1ccc(NC(=O)C(=O)c2c(O)c3ccc(O)cc3oc2=O)c([N+](=O)[O-])c1 | > 100 µM
* CC(C)(CN1CCCCC1)C(=O)/C=C/c1ccc(/C=C/C(=O)C(C)(C)CN2CCCCC2)cc1 | 1.23 µM
* COC(=O)C(Cc1cc(OC)c(OC)c(OC)c1)C(=O)OC | > 320 µM
* C/C(=C1/N=C(c2cc([N+](=O)[O-])ccc2Cl)N(c2cccc(C)c2)C1=O)c1cc2ccccc2oc1=O | > 100 µM
* Cn1c2c(c3ccccc31)CCN(CCCCN1CCCCC1)C2=O | > 100 µM
* N#CC12Cc3cc4c(cc3-c3cccc(c31)CCN2C(=O)c1ccccc1)OCO4 (centres undefined) | > 100 µM
* O=C(c1ccccc1)c1c(CC(O)c2ccccn2)n(C(=O)c2ccccc2)c2ccccc12 (centres undefined) | 58.3 µM

Ask | Recorded TGI for O=C1C2Nc3ccccc3SC2C(=O)N1c1ccc(Br)cc1 (centres undefined) , please?
Reply | > 100 µM

----------
test system: ACHN renal; assay: NCI tumour cell line growth inhibition, 48 h; in the data active means GI50 below about 0.43 µM; inactive means the rest
# output must be one of true (active), false (inactive)

* CC(=O)Nc1ccc2c(c1)C(c1ccccc1Cl)=Nc1c(n[nH]c1C)N2 | false
* O=[N+]([O-])c1cccc2nc3ccccc3c(NCCCn3ccnc3[N+](=O)[O-])c12 | false
* Cc1cc(S(=O)(=O)Nc2nc3ccccc3o2)c(SCc2ccccc2)cc1Cl | false
* CCOC(=O)/C(=C/N1CCN(C(=O)c2ccco2)C1=S)C(=O)c1ccccc1 | false
* Fc1cc2[nH]ncc2c2c3c(c(-c4cn[nH]c4C(F)(F)F)nc12)CCCC3 | false

Ask | Hello, I am checking results. What call was entered for `O=S(=O)(NCCCNc1nccc(-c2c(-c3ccc(O)cc3)nc3sccn23)n1)c1ccc(F)cc1` ?
Reply | false

Ask | Hello, I am checking results. What call was entered for `O=Nc1ccc(O)c(=O)cc1` ?
Reply | false

Ask | Hello, I am checking results. What call was entered for `CCOC(=O)c1ccc(NC(=O)Nc2nncs2)cc1` ?
Reply | false

Ask | Hello, I am checking results. What call was entered for `COCCNCc1ccc(-c2cc3nccc(Oc4ccc(NC(=S)NC(=O)Cc5ccc(F)cc5)cc4F)c3s2)nc1` ?
Reply | false

Ask | Hello, I am checking results. What call was entered for CCCCCCCCCCCCOC1C(CNC(=O)C2OC3OC(C)(C)OC3C2NC(=O)Nc2ccc(CC(=O)OC)cc2)OC2OC(C)(C)OC21 (stereo unspecified) ?
Reply | false

Ask | Hello, I am checking results. What call was entered for `COc1cc(/C=C\c2cc(OC)c(OC)c(OC)c2)cc(N/C=C\C(=O)c2ccc(OC(F)(F)F)cc2)c1OC` ?
Reply | false

Ask | Hello, I am checking results. What call was entered for COc1ccc(C(c2cc(OC)c(OC)c(OC)c2)n2ccnc2)cc1O (stereo unspecified) ?
Reply | false

Ask | Hello, I am checking results. What call was entered for `O=C(CC(Cl)=C(Cl)Cl)Nc1ccccc1` ?
Reply | false
